Data origin: patent US10894807B2

- tested target: human PSMA (Homo sapiens (Human))
- Sequence (Q04609 whole entry): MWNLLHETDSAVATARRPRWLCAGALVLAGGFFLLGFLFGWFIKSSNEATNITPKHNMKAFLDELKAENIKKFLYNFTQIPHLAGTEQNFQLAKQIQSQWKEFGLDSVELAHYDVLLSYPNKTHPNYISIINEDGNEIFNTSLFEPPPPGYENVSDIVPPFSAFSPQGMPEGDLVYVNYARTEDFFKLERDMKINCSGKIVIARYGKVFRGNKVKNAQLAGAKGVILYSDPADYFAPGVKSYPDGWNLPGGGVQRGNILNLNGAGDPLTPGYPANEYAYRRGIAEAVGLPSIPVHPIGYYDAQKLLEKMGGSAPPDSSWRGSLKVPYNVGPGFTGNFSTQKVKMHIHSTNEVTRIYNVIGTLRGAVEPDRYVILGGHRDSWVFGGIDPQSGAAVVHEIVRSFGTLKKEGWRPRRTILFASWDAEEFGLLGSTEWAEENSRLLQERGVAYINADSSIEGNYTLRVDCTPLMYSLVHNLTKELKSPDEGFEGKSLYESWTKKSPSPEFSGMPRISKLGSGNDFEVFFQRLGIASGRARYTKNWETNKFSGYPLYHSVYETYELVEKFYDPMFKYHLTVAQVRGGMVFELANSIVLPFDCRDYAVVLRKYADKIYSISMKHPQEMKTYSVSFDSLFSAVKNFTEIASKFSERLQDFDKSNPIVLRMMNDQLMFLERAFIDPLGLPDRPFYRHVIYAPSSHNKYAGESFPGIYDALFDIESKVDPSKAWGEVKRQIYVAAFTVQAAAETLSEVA
- method description: Enzymatic assay for in vitro evaluation of PSMA inhibitors (fluorescent assay of PSMA activity, NAAG substrate, OPA detection of glutamate)
- Type: biochemical
- experimental context: compound at 10 μM
attribute measured: PSMA Blkg % (10 μM)

• COc1ccc(CCNC(=O)N(O)CC(=O)N[C@@H](CCC(=O)O)C(=O)O)cc1OC = 0%
• O=C(O)CC[C@H](NC(=O)N[C@@H](CCCCNC(=O)c1ccnc(F)c1)C(=O)O)C(=O)O = 90%
• CN(C(=O)N[C@@H](CCC(=O)O)C(=O)O)[C@@H](CCCCNC(=O)OCc1ccccc1)C(=O)O = 99%
• O=C(O)CC[C@@H](C(=O)O)N(O)S(=O)(=O)NC(=O)OCc1ccccc1 = 4%
